Target: EGFR (Homo sapiens)
Construct: purchased Invitrogen (Carlsbad, CA, USA)
Sequence (P00533 25-1210): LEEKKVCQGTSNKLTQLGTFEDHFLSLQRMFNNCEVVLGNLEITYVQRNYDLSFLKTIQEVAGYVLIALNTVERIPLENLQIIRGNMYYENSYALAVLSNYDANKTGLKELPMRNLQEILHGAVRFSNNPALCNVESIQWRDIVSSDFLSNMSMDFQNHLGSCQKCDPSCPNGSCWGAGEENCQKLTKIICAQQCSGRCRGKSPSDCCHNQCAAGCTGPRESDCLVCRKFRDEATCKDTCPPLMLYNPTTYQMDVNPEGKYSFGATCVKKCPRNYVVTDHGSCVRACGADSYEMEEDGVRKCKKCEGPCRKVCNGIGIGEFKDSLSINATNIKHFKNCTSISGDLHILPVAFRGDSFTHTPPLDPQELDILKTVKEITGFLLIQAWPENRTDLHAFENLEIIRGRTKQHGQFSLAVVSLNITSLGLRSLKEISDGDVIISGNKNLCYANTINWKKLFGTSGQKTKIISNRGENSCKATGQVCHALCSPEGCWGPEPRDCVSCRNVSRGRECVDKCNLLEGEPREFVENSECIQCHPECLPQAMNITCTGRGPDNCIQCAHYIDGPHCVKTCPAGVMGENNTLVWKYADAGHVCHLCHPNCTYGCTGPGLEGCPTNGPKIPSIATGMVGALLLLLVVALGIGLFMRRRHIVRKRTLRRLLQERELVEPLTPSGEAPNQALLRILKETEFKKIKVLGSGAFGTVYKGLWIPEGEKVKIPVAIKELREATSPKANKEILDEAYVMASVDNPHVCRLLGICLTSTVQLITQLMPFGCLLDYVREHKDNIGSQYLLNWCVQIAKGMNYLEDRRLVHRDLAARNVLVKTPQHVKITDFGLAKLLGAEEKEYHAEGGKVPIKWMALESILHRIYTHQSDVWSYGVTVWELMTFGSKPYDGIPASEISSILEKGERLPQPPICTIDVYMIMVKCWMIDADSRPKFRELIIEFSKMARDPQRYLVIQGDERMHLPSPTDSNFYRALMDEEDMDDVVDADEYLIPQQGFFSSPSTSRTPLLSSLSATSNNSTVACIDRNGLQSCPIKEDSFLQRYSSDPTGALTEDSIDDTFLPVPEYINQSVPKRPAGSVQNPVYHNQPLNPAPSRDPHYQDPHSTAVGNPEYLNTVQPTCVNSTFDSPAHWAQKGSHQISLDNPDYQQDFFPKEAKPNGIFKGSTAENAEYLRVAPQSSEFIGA
Test: ADP-Glo biochemical kinase assay
Settings: read-out: IC50 against EGFR
Excerpt: The biochemical tests of BMX, BLK, JAK3, TXK, HER2, HER4, ITK, EGFR, and BTK were provided by Invitrogen (Carlsbad, CA, USA).
PARAMETER: IC50

Input line: IC50 lookup needed for C=CC(=O)Nc1cc(Nc2cc(-c3cccc(NC(=O)c4cc5c(s4)CCCC5)c3C)cn(C)c2=O)ccc1N1CCN(CC)CC1 [CHMFL-BTK-85] , thanks.
Output line: > 10 µM

---

assay: in vivo pharmacokinetic study; parameters: species or system rats; details: male, Sprague-Dawley, rat, plasma; rats, oral administration at 10 mg/kg
PARAMETER: AUC(0-t) (ng·h/mL)
Quick reminder: number only, in ng·h/mL, skip the unit.

Input line: AUC(0-t) lookup needed for C=CC(=O)Nc1cc(Nc2cc(-c3cccc(NC(=O)c4cc5c(s4)CCCC5)c3C)cn(C)c2=O)ccc1N1CCN(CC)CC1 [CHMFL-BTK-85] , thanks.
Output line: 2140
